Sourced from patent US6716833B2

We begin with a simple list: items and their reported IC50.
- measurement_target: MMP-1 (Homo sapiens)
- Sequence (P03956 100-469): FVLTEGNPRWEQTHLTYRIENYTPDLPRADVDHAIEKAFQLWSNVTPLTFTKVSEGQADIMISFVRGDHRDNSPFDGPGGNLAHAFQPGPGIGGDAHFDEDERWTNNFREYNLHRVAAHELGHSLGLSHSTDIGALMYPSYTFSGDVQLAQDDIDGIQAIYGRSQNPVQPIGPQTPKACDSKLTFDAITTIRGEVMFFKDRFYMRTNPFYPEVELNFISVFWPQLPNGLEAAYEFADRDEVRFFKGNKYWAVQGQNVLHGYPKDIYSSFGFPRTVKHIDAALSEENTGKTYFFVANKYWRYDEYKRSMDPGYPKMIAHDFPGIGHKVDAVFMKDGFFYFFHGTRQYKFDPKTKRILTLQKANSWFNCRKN
- assay_explanation: MMP-1 inhibition (thiopeptide or fluorescent peptide substrate)
- Format: biochemical
- test_conditions: read-out: MMP-1 IC50
API: value field is a number in nM; no unit string.

{"columns": ["molecule", "IC50 [nM]"],
 "data": [
  ["CC#CCOc1ccc(S(=O)(=O)N(C)C(C(=O)NO)C(C)(C)SCCCN2CCOCC2)cc1 (stereo not shown)", 13]
]}

Entry CC#CCOc1ccc(S(=O)(=O)N2CCN(C(=O)C3(C)COC(C)(C)OC3)CC2C(=O)NO)cc1 (stereo not shown) , IC50 reported as 2450

Entry CC#CCOc1ccc(S(=O)(=O)N(CC#CCNC)C(C(=O)NO)C(C)C)cc1 (stereo not shown) , IC50 reported as 187

Entry CC#CCOc1ccc(S(=O)(=O)N(C)C(C(=O)NO)C(C)(C)SCCC)cc1 (stereo not shown) , IC50 reported as 24

----------
- measurement_target: TNF-α converting enzyme (TACE) (Homo sapiens)
- assay_explanation: TACE inhibition (fluorescent peptidyl substrate)
- Format: biochemical
- test_conditions: 1 uM; Table 15
Could you label it Yes if measured % Inhibition at 1 uM (In Vitro Inhibition of TACE) is 30% or higher, and No otherwise?

{"columns": ["compound", "measurement_target", "discrete_label"],
 "data": [
  ["CC#CCOc1ccc(S(=O)(=O)NC(CC(N)=O)C(=O)NO)cc1 (stereo not drawn)", "TNF-α converting enzyme (TACE) (Homo sapiens)", "Yes"]
]}

[ask] Given CC#CCOc1ccc(S(=O)(=O)N2CC(OCc3ccccc3)CC2C(=O)NO)cc1 (stereo not drawn) , state whether its % Inhibition at 1 uM (In Vitro Inhibition of TACE) is at least 30%.
[reply] No

[ask] Given CC#CCOc1ccc(S(=O)(=O)NC(C(=O)NO)C(C)O)cc1 (stereo not drawn) , state whether its % Inhibition at 1 uM (In Vitro Inhibition of TACE) is at least 30%.
[reply] No

[ask] Given "CC#CCOc1ccc(S(=O)(=O)N[C@@H](CC)C(=O)NO)cc1" , state whether its % Inhibition at 1 uM (In Vitro Inhibition of TACE) is at least 30%.
[reply] Yes

[ask] Given CC#CCOc1ccc(S(=O)(=O)NC(CC(=O)O)C(=O)NO)cc1 (stereo not drawn) , state whether its % Inhibition at 1 uM (In Vitro Inhibition of TACE) is at least 30%.
[reply] Yes

[ask] Given "CC#CCOc1ccc(S(=O)(=O)N[C@H](C(=O)NO)[C@@H](C)CC)cc1" , state whether its % Inhibition at 1 uM (In Vitro Inhibition of TACE) is at least 30%.
[reply] Yes

[ask] Given CC#CCOc1ccc(S(=O)(=O)NC(Cc2ccccc2)C(=O)NO)cc1 (stereo not drawn) , state whether its % Inhibition at 1 uM (In Vitro Inhibition of TACE) is at least 30%.
[reply] Yes

[ask] Given CC#CCOc1ccc(S(=O)(=O)NC(CC(C)C)C(=O)NO)cc1 (stereo not drawn) , state whether its % Inhibition at 1 uM (In Vitro Inhibition of TACE) is at least 30%.
[reply] Yes

[ask] Given CC#CCOc1ccc(S(=O)(=O)NC(C(=O)NO)C(C)OCc2ccccc2)cc1 (stereo not drawn) , state whether its % Inhibition at 1 uM (In Vitro Inhibition of TACE) is at least 30%.
[reply] No

[ask] Given CC#CCOc1ccc(S(=O)(=O)NC(Cc2c[nH]cn2)C(=O)NO)cc1 (stereo not drawn) , state whether its % Inhibition at 1 uM (In Vitro Inhibition of TACE) is at least 30%.
[reply] Yes

[ask] Given CC#CCOc1ccc(S(=O)(=O)NC(CSCNC(C)=O)C(=O)NO)cc1 (stereo not drawn) , state whether its % Inhibition at 1 uM (In Vitro Inhibition of TACE) is at least 30%.
[reply] No

[ask] Given CC#CCOc1ccc(S(=O)(=O)NC(CSC(C)(C)C)C(=O)NO)cc1 (stereo not drawn) , state whether its % Inhibition at 1 uM (In Vitro Inhibition of TACE) is at least 30%.
[reply] Yes

[ask] Given CC#CCOc1ccc(S(=O)(=O)NC(CCC(=O)O)C(=O)NO)cc1 (stereo not drawn) , state whether its % Inhibition at 1 uM (In Vitro Inhibition of TACE) is at least 30%.
[reply] Yes

[ask] Given CC#CCOc1ccc(S(=O)(=O)NC(C(=O)NO)C(C)C)cc1 (stereo not drawn) , state whether its % Inhibition at 1 uM (In Vitro Inhibition of TACE) is at least 30%.
[reply] Yes

[ask] Given CC#CCOc1ccc(S(=O)(=O)NC(Cc2ccc(O)cc2)C(=O)NO)cc1 (stereo not drawn) , state whether its % Inhibition at 1 uM (In Vitro Inhibition of TACE) is at least 30%.
[reply] No

[ask] Given "CC#CCOc1ccc(S(=O)(=O)NCCC(=O)NO)cc1" , state whether its % Inhibition at 1 uM (In Vitro Inhibition of TACE) is at least 30%.
[reply] Yes

[ask] Given CC#CCOc1ccc(S(=O)(=O)NC(CCN)C(=O)NO)cc1 (stereo not drawn) , state whether its % Inhibition at 1 uM (In Vitro Inhibition of TACE) is at least 30%.
[reply] No

[ask] Given CC#CCOc1ccc(S(=O)(=O)NC(CO)C(=O)NO)cc1 (stereo not drawn) , state whether its % Inhibition at 1 uM (In Vitro Inhibition of TACE) is at least 30%.
[reply] No

[ask] Given CC#CCOc1ccc(S(=O)(=O)NC(Cc2ccc(OCc3ccccc3)cc2)C(=O)NO)cc1 (stereo not drawn) , state whether its % Inhibition at 1 uM (In Vitro Inhibition of TACE) is at least 30%.
[reply] Yes

----------
- measurement_target: TNF-α converting enzyme (TACE) (Homo sapiens, UniProt P78536)
- Sequence (P78536 215-824, species assumed): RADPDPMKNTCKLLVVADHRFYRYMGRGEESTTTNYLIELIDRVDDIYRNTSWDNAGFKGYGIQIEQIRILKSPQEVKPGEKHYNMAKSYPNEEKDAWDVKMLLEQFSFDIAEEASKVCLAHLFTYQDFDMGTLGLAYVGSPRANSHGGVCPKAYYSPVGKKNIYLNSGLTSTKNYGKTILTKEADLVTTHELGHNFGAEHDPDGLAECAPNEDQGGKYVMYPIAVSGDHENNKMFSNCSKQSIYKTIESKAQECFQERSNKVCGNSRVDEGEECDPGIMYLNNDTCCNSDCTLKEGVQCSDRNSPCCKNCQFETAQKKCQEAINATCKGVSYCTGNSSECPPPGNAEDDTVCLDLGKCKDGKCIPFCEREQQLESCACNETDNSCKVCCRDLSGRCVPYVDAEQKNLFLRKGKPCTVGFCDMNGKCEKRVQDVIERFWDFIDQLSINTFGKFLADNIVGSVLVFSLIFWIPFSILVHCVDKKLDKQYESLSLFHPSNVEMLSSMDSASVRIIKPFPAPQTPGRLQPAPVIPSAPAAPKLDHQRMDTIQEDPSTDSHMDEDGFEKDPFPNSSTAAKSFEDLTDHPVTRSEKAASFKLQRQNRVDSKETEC
- assay_explanation: TACE inhibition (fluorescent peptidyl substrate)
- Type: biochemical
- test_conditions: Table 9; read-out: TACE IC50
Friendly reminder: IC50 below 30 nM is Fulfilled, at or above is Not fulfilled.

Some entries whose results are on file:
{"columns": ["compound", "discrete_label"],
 "data": [
  ["CC#CCOc1ccc(S(=O)(=O)N2CCSC3(CCN(C)CC3)C2C(=O)NO)cc1 (centres unmarked) [Example 242]", "Not fulfilled"],
  ["CC#CCOc1ccc(S(=O)(=O)N2CCSCC2C(=O)NO)cc1 (centres unmarked) [Example 239]", "Fulfilled"],
  ["CC#CCOc1ccc(S(=O)(=O)N2CCSC(CC)(CC)C2C(=O)NO)cc1 (centres unmarked) [Example 238]", "Not fulfilled"],
  ["CCC#CCOc1ccc(S(=O)(=O)N2CCSC(C)(C)[C@@H]2C(=O)NO)cc1 [Example 259]", "Fulfilled"],
  ["CC#CCOc1ccc(S(=O)(=O)N2CCSC3(CCCCC3)C2C(=O)NO)cc1 (centres unmarked) [Example 237]", "Not fulfilled"],
  ["C#CCOc1ccc(S(=O)(=O)N2CCSC(C)(C)[C@@H]2C(=O)NO)cc1 [Example 258]", "Fulfilled"]
]}

[ask] Consider the compound CC#CCOc1ccc(S(=O)(=O)N2CCSC3(CCCC3)C2C(=O)NO)cc1 (centres unmarked) [Example 236] . Is its IC50 strictly less than 30 nM?
[reply] Not fulfilled

[ask] Consider the compound CC#CCOc1ccc(S(=O)(=O)N2CCSC3(CCN(Cc4ccccc4)CC3)C2C(=O)NO)cc1 (centres unmarked) [Example 241] . Is its IC50 strictly less than 30 nM?
[reply] Not fulfilled

----------
We begin with a simple list: items and their reported IC50.
- measurement_target: MMP-9 (Homo sapiens)
- Sequence (P14780 94-707): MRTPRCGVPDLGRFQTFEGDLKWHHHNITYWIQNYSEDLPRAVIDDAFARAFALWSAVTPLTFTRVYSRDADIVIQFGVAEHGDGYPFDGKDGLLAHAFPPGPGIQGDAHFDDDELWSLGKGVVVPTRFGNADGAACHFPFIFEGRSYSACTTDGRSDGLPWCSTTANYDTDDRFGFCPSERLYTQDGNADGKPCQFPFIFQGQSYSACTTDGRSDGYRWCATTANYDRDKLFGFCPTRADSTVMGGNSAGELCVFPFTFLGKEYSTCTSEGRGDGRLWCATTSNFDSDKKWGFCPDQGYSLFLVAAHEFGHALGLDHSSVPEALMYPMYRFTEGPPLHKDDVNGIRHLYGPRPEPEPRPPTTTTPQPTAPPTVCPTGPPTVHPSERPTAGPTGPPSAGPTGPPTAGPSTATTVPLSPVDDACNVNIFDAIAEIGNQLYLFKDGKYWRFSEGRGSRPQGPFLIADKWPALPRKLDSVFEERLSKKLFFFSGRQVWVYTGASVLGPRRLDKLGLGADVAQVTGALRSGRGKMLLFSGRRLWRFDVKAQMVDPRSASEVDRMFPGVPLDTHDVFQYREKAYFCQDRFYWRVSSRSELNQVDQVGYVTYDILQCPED
- assay_explanation: MMP-9 inhibition (thiopeptide or fluorescent peptide substrate)
- Type: biochemical
- test_conditions: read-out: MMP-9 IC50
API: value field is a number in µM; no unit string.

Check out these entries, answers already filled in.
{"columns": ["compound", "numeric_readout"],
 "data": [
  ["CC#CCOc1ccc(S(=O)(=O)N(CC#CCN(CC)CC)C(C(=O)NO)C(C)C)cc1 (centres unmarked) [Example 126]", 0.149],
  ["CC#CCOc1ccc(S(=O)(=O)N(C)C(C(=O)NO)C(C)(C)SCCCN2CCOCC2)cc1 (centres unmarked) [Example 146]", 0.0053],
  ["CC#CCOc1ccc(S(=O)(=O)N(C)[C@@H](C(=O)NO)c2ccc(O[C@H]3CCN(C(=O)OC(C)(C)C)C3)cc2)cc1 [Example 189]", 0.297],
  ["CC#CCOc1ccc(S(=O)(=O)N(C)C(C(=O)NO)c2ccc(OCCN3CCN(C(=O)OC(C)(C)C)CC3)cc2)cc1 (centres unmarked) [Example 185]", 0.053],
  ["CC#CCOc1ccc(S(=O)(=O)N(C)CC(=O)NO)cn1 [Example 131]", 0.402],
  ["CC#CCOc1ccc(S(=O)(=O)N2CCCN(C(=O)c3ccccc3)CC2C(=O)NO)cc1 (centres unmarked) [Example 49]", 0.075],
  ["C#CCN(C(C(=O)NO)C(C)C)S(=O)(=O)c1ccc(OCC#CC)cc1 (centres unmarked) [Example 109]", 0.233],
  ["CC#CCOc1ccc(S(=O)(=O)N(Cc2cccnc2)C(C(=O)NO)C(C)C)cc1 (centres unmarked) [Example 114]", 0.193],
  ["CN(CC(=O)NO)S(=O)(=O)c1ccc(OCC#Cc2ccc(Cl)cc2)cc1 [Example 132]", 2.37],
  ["CC#CCOc1ccc(S(=O)(=O)N2CCN(C(=O)OC)CC2C(=O)NO)cc1 (centres unmarked) [Example 228]", 0.071]
]}

// next entry
Entry CC#CCOc1ccc(S(=O)(=O)N2CCN(C(=O)CC)CC2C(=O)NO)cc1 (centres unmarked) [Example 225] , IC50 reported as 0.727
